Test system: HT
protocolNotes: cells
Design: Oncolines panel cell viability, ATPlite 1Step luminescence, duplicate 9-point dose response, IC50
condition: Homo sapiens, HT; 72 h viability; read-out: SJ3149

{"compound": "O=C1CCC(N2Cc3cc(Nc4noc5ccccc45)ccc3C2=O)C(=O)N1 (stereo not shown) [SJ3149]", "tgt": "HT", "IC50": "> 31.6 µM"}

* * *

Tested on: SNU-C2B
protocolNotes: cells
Parameters: Oncolines panel cell viability, ATPlite 1Step luminescence, duplicate 9-point dose response, IC50
condition: Homo sapiens, SNU-C2B; 72 h viability; read-out: SJ3149
pIC50: −log10 of the molar value.

{"compound": "O=C1CCC(N2Cc3cc(Nc4noc5ccccc45)ccc3C2=O)C(=O)N1 (stereo not shown) [SJ3149]", "tgt": "SNU-C2B", "pIC50": "< 4.50"}

* * *

Test system: panel of AML and ALL cell lines
protocolNotes: CTG viability in a panel of AML and ALL cell lines (Fig. 3a)
Assay type: cell-based, human
condition: Homo sapiens, Kasumi-3, KASUMI-3 cells; replicate values

{"compound": "O=C1CCC(N2Cc3cc(Nc4noc5ccccc45)ccc3C2=O)C(=O)N1 (stereo not shown)", "resultUnits": "nM", "IC50": 118}

* * *

protocolNotes: Pharmacokinetics in female CD1 mice
Format: in vivo, mouse
condition: female, CD1, plasma; PO 50 mg/kg, mouse
Experimental: Three mice were housed in each cage. […] Temperature and humidity were recorded by an auto-controlled data logger system. All the animals were provided a laboratory rodent diet (Altromin, Germany). Reverse osmosis water treated with ultraviolet light was provided ad libitum. […] Concentrations of SJ3149 in mouse plasma samples were determined by fit-for-purpose LC–MS/MS method. […] The area under the concentration–time curve (AUClast) was calculated by the linear trapezoidal rule. […]

{"molecule": "O=C1CCC(N2Cc3cc(Nc4noc5ccccc45)ccc3C2=O)C(=O)N1 (stereo not shown)", "Tmax (min)": 15}

* * *

Test system: 115 human cancer cell lines
protocolNotes: Oncolines panel cell viability assay (ATPlite, 72 h)
Type: cell-based
condition: Homo sapiens, CCRF-CEM, cell line CCRF-CEM, Childhood T acute lymphoblastic leukemia, TP53 Mutant; read-out: IC50
quantityKind: IC50 (µM)

{"compound": "O=C1CCC(N2Cc3cc(Nc4noc5ccccc45)ccc3C2=O)C(=O)N1 (stereo not shown) [SJ3149]", "tgt": "115 human cancer cell lines", "resultNumber": 24.1}

* * *

Tested on: 102 cell lines
protocolNotes: Oncolines viability of 120 reference anti-cancer agents
Type: cell-based, human
condition: HCT 116; Colon carcinoma
pIC50: −log10 of the molar value.

{"structureSmiles": "COc1ccc(C2=N[C@@H](c3ccc(Cl)cc3)[C@@H](c3ccc(Cl)cc3)N2C(=O)N2CCNC(=O)C2)c(OC(C)C)c1", "pIC50": 5.34}

* * *

Test system: 102 cell lines
protocolNotes: Oncolines viability of 120 reference anti-cancer agents
Format: cell-based, human
condition: KLE; Endometrial adenocarcinoma
quantityKind: IC50

{"structureSmiles": "COc1ccc(C2=N[C@@H](c3ccc(Cl)cc3)[C@@H](c3ccc(Cl)cc3)N2C(=O)N2CCNC(=O)C2)c(OC(C)C)c1", "quantityKind": "IC50", "result": "> 31.6 µM"}

* * *

Test system: 102 cell lines
protocolNotes: Oncolines viability of 120 reference anti-cancer agents
Assay type: cell-based, human
condition: HL-60; Adult acute myeloid leukemia
pIC50: −log10 of the molar value.
quantityKind: pIC50

{"structureSmiles": "COc1ccc(C2=N[C@@H](c3ccc(Cl)cc3)[C@@H](c3ccc(Cl)cc3)N2C(=O)N2CCNC(=O)C2)c(OC(C)C)c1", "quantityKind": "pIC50", "result": "< 4.50"}
